- System: HEK293T (UBE3A T485A transfected, BAR Wnt reporter)
- experimentDescription: Wnt reporter firefly/Renilla luciferase ratio relative to plate median (fold (linear ratio)); higher = more Wnt/beta-catenin reporter activation
- appliedConditions: concentration: 10 uM; 24 h
Over roughly 1,100 compounds, “Wnt reporter firefly/Renilla luciferase ratio relative to plate median” has its median near 1.1; the highest 2% begin near 1.6. What follows is part of a selection rich in the highest values, with near analogues and random picks from the rest.
measurementKind: Wnt reporter firefly/Renilla luciferase ratio
Give bare numbers.

Qu. So what's the measured Wnt reporter firefly/Renilla luciferase ratio for this one? CCCCC(CC)COC(=O)CCCCCCCC(=O)OCC(CC)CCCC (configuration not stated) [Bis(2-ethylhexyl) nonanedioate]
Ans. 1.33

Provide Wnt reporter firefly/Renilla luciferase ratio values for the following items, in order.
1. CCCCOC(=O)[C@@H](C)Oc1ccc(Oc2ccc(C(F)(F)F)cn2)cc1
2. CCCCC(CC)COC(=O)CCCCCCCCC(=O)OCC(CC)CCCC (configuration not stated) [Bis(2-ethylhexyl) decanedioate]
3. CCC(C)N(C)C(=O)c1cc2ccccc2c(-c2ccccc2Cl)n1 (configuration not stated)
4. CCOC(=O)c1ccc(O)cc1
5. CC(C)c1cccc(C(C)C)c1NC(=O)[N-]S(=O)(=O)c1cc(C(C)(C)O)co1.[Na+]
6. CC(C)(C)c1cc(/C=C2\SC(=N)NC2=O)cc(C(C)(C)C)c1O.CS(=O)(=O)O [Darbufelone mesylate]

Ans.
1. 1.09
2. 1.07
3. 1.03
4. 0.941
5. 1.2
6. 1.28

====

- Tested on: HEK293T (UBE3A T485A transfected, BAR Wnt reporter)
- experimentDescription: Wnt reporter firefly/Renilla luciferase ratio relative to plate median (fold (linear ratio)); higher = more Wnt/beta-catenin reporter activation
- appliedConditions: concentration: 0.1 uM; 24 h
In all, about 1,100 compounds were measured (“Wnt reporter firefly/Renilla luciferase ratio relative to plate median”: median about 1.1, highest 2% from about 1.6 on). The full list was thinned out, with the highest values kept by preference.
Exercise: for every item that follows, state its recorded Wnt reporter firefly/Renilla luciferase ratio.
One number for each entry.

Qu. Which Wnt reporter firefly/Renilla luciferase ratio is reported with HEK293T (UBE3A T485A transfected, BAR Wnt reporter) for this entry: Cc1occc1C(=O)Nc1ccc(C(=O)N2CCC(F)(F)/C(=C\C(=O)N3CCC(N4CCCCC4)CC3)c3ccccc32)cc1.Cc1occc1C(=O)Nc1ccc(C(=O)N2CCC(F)(F)/C(=C\C(=O)N3CCC(N4CCCCC4)CC3)c3ccccc32)cc1.O=C(O)/C=C/C(=O)O ?
Ans. 1.22

Qu. Next compound up: O=C(NS(=O)(=O)/C=C/c1cccs1)c1ccc(F)cc1Br
Ans. 1.13

Qu. CC[C@H](NC(=O)c1cc(F)ccc1[N-]S(=O)(=O)c1cccc2cccnc12)c1ccccc1.[Na+] , same question.
Ans. 1.22

Qu. Next compound: CCCCCCC(=O)O [Heptanoic acid]
Ans. 1.02

Kindly review the next compound as well.
Qu. Provide value of Wnt reporter firefly/Renilla luciferase ratio for this record tested with HEK293T (UBE3A T485A transfected, BAR Wnt reporter): CS(=O)(=O)c1ccc([C@@H](C[C@H]2CCC(=O)C2)C(=O)Nc2cnccn2)cc1Cl [Piragliatin]
Ans. 1.03
